Target: T1, DVL3, Q92997
T1 sequence (Q92997 244-331, limits assumed, looked up): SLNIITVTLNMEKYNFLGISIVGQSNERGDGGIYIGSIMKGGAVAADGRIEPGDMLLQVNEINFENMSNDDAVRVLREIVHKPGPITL
Test: holdup assay
Set-up: key: below the threshold = too weak to quantify, mostly under pKd 3.1 to 4
Details: plain residues with an end cap or a label only (N-terminal biotin on a linker: ado-ado)
MEASURED ATTRIBUTE: pKd

Value of measured pKd for the entry EPQYQPGENL [SRC, P12931] : below the threshold

Value of measured pKd for the entry GIKKITSTAL [RPS6KA3, P51812] : below the threshold

Value of measured pKd for the entry TRKRSGEAAV [PFKM, P08237] : below the threshold
